The measured values listed here are drawn from paper PMC3755010.

Assay: Non-crossover in vivo pharmacokinetic studies in rats
Design: species or system rat
Conditions: rat, plasma, iv, 1 mg/kg
assay_readout: clearance (mL/min/kg)
Write the answer as a number in mL/min/kg, unit excluded.

Answer with the recorded clearance of C[C@@H](NC(=O)c1ccc(OCc2cccc(F)c2)nc1)C(C)(C)C only. 13.7
